# Tested on: UACC-62 melanoma
# EXPERIMENTAL_PROTOCOL: NCI-60 one-dose screen, 48 h
# PROTOCOL_CONDITIONS: 10 µM unless noted
Compounds without any hit were thinned out: in the full panel of roughly 83,000, 20% have a hit. Calls of active or inactive are those of the source. Rule for the calls: active = growth percent below 10; inactive = the rest.
Valid outcomes are listed here; reply with one: active, inactive

Oc1c(CN2CCCC2)cc(COCc2ccccc2)c2cccnc12 :: active
C=C(C)[C@@H]1CC[C@]2(CO)CC[C@]3(C)[C@H](CC[C@@H]4[C@@]5(C)CCC(NCCc6ccc(O)cc6)C(C)(C)[C@@H]5CC[C@]43C)[C@@H]12 (stereo not given in full) :: active
O=C(O)CCCn1c(SCc2c(Cl)cccc2Cl)nc2ccsc2c1=O :: inactive
C#Cc1cccc(Oc2ccc(NC(=O)CCl)cc2)c1 :: inactive
NC(=O)OCCn1cc(-c2nc(-c3c[nH]c4ncccc34)cs2)c2ccccc21 :: inactive

Query: Entry COC(=O)c1nc(-c2ccccc2)oc1S(=O)(=O)N1CCC(C(N)=O)CC1 : call = ?
Reply: inactive

Query: Entry N#C/C(=C\c1ccc(-c2ccc(Cl)cc2)o1)c1ccc(Cl)cc1 : call = ?
Reply: inactive

Query: Entry CCn1cc(C(=O)NN=C2CCCCCC2)c(=O)c2ccc(C)nc21 : call = ?
Reply: inactive

Query: Entry O=C(CSc1nc2ccc([N+](=O)[O-])cc2[nH]1)Nc1ccc(Br)cc1 : call = ?
Reply: inactive

Query: Entry O=C1OCC2=C1C(c1cccc(C(F)(F)F)c1)c1cc3c(cc1N2CCO)OCO3 (stereo not given) : call = ?
Reply: inactive

###

# Test system: SNB-19 CNS
# EXPERIMENTAL_PROTOCOL: NCI-60 one-dose screen, 48 h
# PROTOCOL_CONDITIONS: 10 µM unless noted
The panel holds about 83,000 compounds, 20% with a hit somewhere; the sample as a whole holds those more often. Calls of active or inactive are those of the source. How the source made its calls: active means growth percent below 10; inactive means the rest.
Valid outcomes are listed here; reply with one: active, inactive

CC/C=C1/C(=O)C=C[C@@H]1C/C=C\CCCC(=O)OC :: inactive
COc1cc2c(c(OC)c1OC)C(=O)N[C@@H]1[C@@H](O)[C@@H](O)[C@H](O)C[C@@H]21 :: inactive
Cc1c2cnccc2c(C)c2c1c1cc(C3OCCCO3)ccc1n2C :: active
Cc1ccc(/C=C(\C#N)C(=O)Nc2ncc(Cc3cc(Cl)ccc3Cl)s2)o1 :: inactive
Cc1cc2nc(-c3c(-c4ccc(F)cc4)nc4sccn34)[nH]c2cc1C :: inactive
CN(C)c1ccc(-c2cc(-c3ccc(Nc4nc(Nc5ccc(Cl)cc5)nc(Nc5ccc(Cl)cc5)n4)cc3)nc(N)c2C#N)cc1 :: inactive

Query: Entry O=C1/C=C/[C@@H](O)[C@@H]2C[C@@H](O)C[C@H]2/C=C/CCC[C@H](CCOCc2ccccc2)O1 : call = ?
Reply: inactive

Query: Entry O=C(O)CCCn1c(SCc2c(Cl)cccc2Cl)nc2ccsc2c1=O : call = ?
Reply: inactive

Query: Entry Nc1ccc([N+](=O)[O-])cc1N=C/C=C/c1ccccc1 : call = ?
Reply: inactive

###

# Test system: HOP-62 NSCLC
# EXPERIMENTAL_PROTOCOL: NCI-60 one-dose screen, 48 h
# PROTOCOL_CONDITIONS: 10 µM unless noted
About 83,000 compounds went through this panel and 20% of them were active in at least one assay; those are over-represented in the sample as a whole. Calls of active or inactive are those of the source. How the source made its calls: active means growth percent below 10; inactive means the rest.
Valid outcomes are listed here; reply with one: active, inactive

Cn1cc(-c2nonc2-c2c[nH]c3ccccc23)c2ccccc21 :: inactive
COc1cccc(/C=C/C(=O)c2cc3c(N)c(C(=O)Nc4cccc(Cl)c4C)sc3nc2C)c1 :: active
COc1cc2c3c(c1O)-c1ccccc1[C@@H]1OC(=O)N(CC2)[C@H]31 :: inactive
Nc1c(C(=O)Nc2cccc3ncccc23)sc2nc3c(cc12)C(=O)CCC3 :: inactive
CCC/C(=N\NC(N)=O)C(OC)OC :: inactive
CC(C)(C)C(=O)/C=C/c1ccc([N+](=O)[O-])cc1 :: inactive

Query: Entry O=C(CSc1nc2ccc([N+](=O)[O-])cc2[nH]1)Nc1cccc([N+](=O)[O-])c1 : call = ?
Reply: inactive

Query: Entry O=C(CSc1nc2ccc([N+](=O)[O-])cc2[nH]1)Nc1ccc(Br)cc1 : call = ?
Reply: inactive

###

# Test system: UACC-62 melanoma
# EXPERIMENTAL_PROTOCOL: NCI-60 one-dose screen, 48 h
# PROTOCOL_CONDITIONS: 10 µM unless noted
The panel holds about 83,000 compounds, 20% with a hit somewhere; the sample as a whole holds those more often. The source made the active and inactive calls. Rule for the calls: active = growth percent below 10; inactive = the rest.
Valid outcomes are listed here; reply with one: active, inactive

Consider the worked cases shown below.
C=CC(=O)NCCOc1cccc(Nc2cc(NCCCNC(=O)C3CCC3)c(Br)cn2)c1 :: active
CCOc1ccc(NC(=O)c2cc(OC)c(OC)c(OC)c2)cc1 :: inactive

Query: Entry COc1cc(C2Cc3ncccc3-c3[nH]c(=O)c4cccnc4c32)cc(OC)c1OC (stereo not given) : call = ?
Reply: inactive

Query: Entry COc1ccc2nc(SCC(=O)Nc3ccccc3C)[nH]c2c1 : call = ?
Reply: inactive

Query: Entry O=C(/C=C/c1ccccc1)Nc1ncc(Cc2ccccc2)s1 : call = ?
Reply: active

Query: Entry O=C(NCc1ccc2c(c1)OCO2)NCC1CCCC(CNC(=O)NCc2ccc3c(c2)OCO3)C1 (stereo not given) : call = ?
Reply: inactive

Query: Entry Cc1ccc(C(=O)c2ccc(CC(=O)N/N=C/c3ccc(O)cc3O)n2C)cc1 : call = ?
Reply: inactive

Query: Entry Cc1cc(C)c(-c2c(O)c(Br)c(-c3c(C)cc(C)c(Br)c3C)c(O)c2Br)c(C)c1Br : call = ?
Reply: inactive

Query: Entry CCOC(=O)/C=C/c1c(C)[nH]c(=O)[nH]c1=O : call = ?
Reply: inactive

Query: Entry Cc1nn(-c2ccccc2)c(N2CCCCC2)c1/C=N/NC(=O)Cn1c(=O)sc2ccccc21 : call = ?
Reply: inactive

###

# Test system: LOX IMVI melanoma
# EXPERIMENTAL_PROTOCOL: NCI-60 one-dose screen, 48 h (100 = growth as untreated, 0 = no growth, -100 = all killed)
# PROTOCOL_CONDITIONS: 10 µM unless noted
This is part of a sample that, as a whole, favours compounds with a hit. Of some 83,000 tested, about 20% had one in any assay. The source made the active and inactive calls. How the source made its calls: active means growth percent below 10; inactive means the rest.
The compounds listed here are annotated with their growth.

Worked cases, growth given:
CCN(CC)CCN(CCN(CC)CC)c1ccccc1 :: 88.7% (inactive)
COc1cc(/C=C/c2cc(/C=C/c3ccc(O)c(OC)c3)n(C(=O)Nc3ccc(F)cc3)n2)ccc1O :: 4% (active)
O=C(/C=C/C12c3ccccc3C(c3ccccc31)C1C(=O)NC(=O)C12)c1ccc(F)cc1 (stereo not given) :: -53.9% (active)
COC(=O)/C(CCC=C(C)C)=C1\[C@@H](OC(C)=O)C[C@@]2(C)[C@H]1CC(=O)[C@H]1[C@@]3(C)CCC(N4CCCC4)[C@@H](C)[C@@H]3CC[C@@]12C (stereo not given in full) :: 101% (inactive)

// switching to the query compound
Query: Which growth reading was recorded for the compound CCN=C1C=CC(=C(c2ccc(N(C)C)cc2)c2ccc(N(C)C)cc2)c2ccccc21 ?
Reply: -10.8% (active)

###

# Tested on: SK-OV-3 ovarian
# EXPERIMENTAL_PROTOCOL: NCI-60 one-dose screen, 48 h (100 = growth as untreated, 0 = no growth, -100 = all killed)
# PROTOCOL_CONDITIONS: 10 µM unless noted
The panel holds about 83,000 compounds, 20% with a hit somewhere; the sample as a whole holds those more often. The source made the active and inactive calls. Rule for the calls: active = growth percent below 10; inactive = the rest.
MEASURE: growth

Worked cases, growth given:
COc1ccc2cc(-c3ccc(-c4ccc(C(=N)N)s4)s3)ccc2c1 :: 97.2% (inactive)
C=C1C(=O)O[C@H]2[C@H]1CC/C(COC(=O)c1cc3cc(F)ccc3[nH]1)=C\CC[C@@]1(C)O[C@@H]21 :: 26.7% (inactive)
c1ccc(CNc2ccc3nc(CCC4CCCCC4)[nH]c3c2)cc1 :: 86.8% (inactive)
CCOC(=O)n1cc(-c2nonc2-c2cn(C)c3ccccc23)c2ccccc21 :: 45% (inactive)
N=c1sc(Cc2cc(Cl)ccc2Cl)cn1CC(=O)c1ccccc1 :: 67.9% (inactive)

Query: Lab request: please report growth under test system SK-OV-3 ovarian for C=C1C(=O)O[C@H]2[C@H]1CC/C(COC(=O)/C=C\C(=O)NCc1ccc(Cn3c(=O)sn(-c4ccccc4)c3=O)cc1)=C\CC[C@@]1(C)O[C@@H]21
Reply: 108% (inactive)

Query: Lab request: please report growth under test system SK-OV-3 ovarian for O=C(OC[C@@H]1CO1)c1cccc2c(=O)c3ccccc3[nH]c12
Reply: -38.5% (active)

Query: Lab request: please report growth under test system SK-OV-3 ovarian for C#Cc1cccc(Nc2nc3ccc([N+](=O)[O-])cc3nc2Nc2cccc(C#C)c2)c1
Reply: -84.9% (active)

Query: Lab request: please report growth under test system SK-OV-3 ovarian for Cc1ccc2[nH]c(=O)c3c(c2c1)OC(N)=C(C#N)C31C(=O)c2cccc3cccc1c23 (stereo not given)
Reply: 105% (inactive)

Query: Lab request: please report growth under test system SK-OV-3 ovarian for CC(/C=C1\SC(=S)N(CC(=O)NC(Cc2c[nH]c3ccccc23)C(=O)O)C1=O)=C\c1ccccc1 (stereo not given)
Reply: 105% (inactive)
